Target: cyno-NKG2D/Dap10 over-expressed in CHO cells (cyno) (UniProt P61252)
Sequence (P61252 whole entry): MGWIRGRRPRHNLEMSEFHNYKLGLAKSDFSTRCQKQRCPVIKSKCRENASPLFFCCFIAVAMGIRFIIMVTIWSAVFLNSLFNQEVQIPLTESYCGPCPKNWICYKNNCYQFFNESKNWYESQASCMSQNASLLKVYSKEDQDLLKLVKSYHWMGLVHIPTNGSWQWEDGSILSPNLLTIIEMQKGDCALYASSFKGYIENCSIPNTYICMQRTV
Assay: FACS on CHO cells over expressing cynoNKG2D
Recorded EC50 for the following binders
Numbers only here, please. The scale is nM.

Please review the following examples before continuing.
# Binder, Readout label, Result units, Test result
data = [
    ("IM1248 CD3x5T4x NKG2D-cl-10 (L-H) (protein, part only; not given: anti-CD3 Fab, anti-5T4 scFv, linkers, not shown: another chain or arm of the molecule; small tags and cut ends) VL: DIVLTQSPASLAMSLGKRATISCRASESVSIMGTNLINWYQQKLGQPPKLLIYHASNLETGVPARFSGSGSRTDFTLTIDPVEEDDVAVYYCLQGRKIPRTFGGGTKLEIK VH: QVQLQQPGAELVKPGASVKLSCKASGYTFTTYWIQWIKQRPGQGLEWIGEIDPSDIFTNYNQKFKGKATLTVDTSSSTAYMQLSSLTSEDSAVYYCARGVYDGYYVGYFDVWGTGTTVTVSS", "EC50", "nM", 5.9),
    ("IM1249 CD3x5T4x NKG2D-cl-10 (H-L) (protein, part only; not given: anti-CD3 Fab, anti-5T4 scFv, linkers, not shown: another chain or arm of the molecule; small tags and cut ends) VH: QVQLQQPGAELVKPGASVKLSCKASGYTFTTYWIQWIKQRPGQGLEWIGEIDPSDIFTNYNQKFKGKATLTVDTSSSTAYMQLSSLTSEDSAVYYCARGVYDGYYVGYFDVWGTGTTVTVSS VL: DIVLTQSPASLAMSLGKRATISCRASESVSIMGTNLINWYQQKLGQPPKLLIYHASNLETGVPARFSGSGSRTDFTLTIDPVEEDDVAVYYCLQGRKIPRTFGGGTKLEIK", "EC50", "nM", 5.3),
]

In: Quick one: EC50 of IM1244 CD3x5T4x NKG2D-cl-1 (L-H) (protein, part only; not given: anti-CD3 Fab, anti-5T4 scFv, linkers, not shown: another chain or arm of the molecule; small tags and cut ends) VL: DIVLTQSPASLAVSLGQRAIISCKASQSVSFAGSNLMHWYQQKPGQQPKLLIYRASNLEVGVPTRFSGSGSGTDFTLNIHPVDEDDAATYYCQQSREYPFTFGSGTKLEIK VH: EVQLQQSGPELVKPGASVKISCKASAFNFTSYYLHWVKQGPGQGLEWIGWIYPGSGDTKYNEKFKGKATLTADTSSSAANMKLSSLTSEDSAVYYCARNRIFDSYYVDSMDYWGQGTSVTVSS ?
Out: 21

In: Please look up its EC50: IM1250 CD3x5T4x NKG2D-cl-19 (L-H) (protein, part only; not given: anti-CD3 Fab, anti-5T4 scFv, linkers, not shown: another chain or arm of the molecule; small tags and cut ends) VL: DILLTQSPAILSVSPGERVSFSCRASQSIGTSIHWYQQRTNVSPRLLIKYASESISGIPSRFSGSGSGTDFTLSINNVESEDIADYYCQHSNRWPLTFGAGTKLELK VH: QVQLKESGPGLVAPSQSLSITCTVSGFSLTSYAISWFRQPPGKGLECLGVIWTGGGTNYNSVFKSRLSIIKDNSKSQVFLKMNSLQTDDTARYYCARKGDEGYWGYFDVWGTGTTVTVSS
Out: 2.3
